Tested on: ncRNAs (SEQ ID NO 28-89)
test: ncRNA arrays of melanocytes, keratinocytes, normal skin, melanoma cell lines and patient samples
Set-up: species or system human
assay_setup: melanoma patient 7 sample compared to normal skin
Entry flag: satisfied if ncRNA array expression, patient 7 reaches -0.9; not satisfied if it does not.

Please review the entries below; each comes with its answer.
{"columns": ["substance", "group_label"],
 "data": [
  ["SEQ ID NO 46 (CTATTGGAGTGCATATAAATTCTTGATAGCACCAGTTCTCAAATATGAGGTGTTAAAAAC; listed as DNA, chemistry not given here; listed as Homo sapiens)", "satisfied"],
  ["SEQ ID NO 83 (TCAGTTTGATGATTGGGCTAGGGAATGAAGCTTTGCCACTTAGGAGATAAACCCCATAAC; listed as DNA, chemistry not given here; listed as Homo sapiens)", "not satisfied"],
  ["SEQ ID NO 82 (GAAGTCAGAAACTAAAGTTCCCTTCTAAGACAAAATCCTGCTTTGGAGAAAAAAAAAAAT; listed as DNA, chemistry not given here; listed as Homo sapiens)", "not satisfied"]
]}

Exam item: Evaluate SEQ ID NO 52 (TTTTCTTAGTCTTTTTACTTTTTCCATTATATTCTTTGATATATTTGAGAAAATGGCTTG; listed as DNA, chemistry not given here; listed as Homo sapiens) : ncRNA array expression, patient 7 at minimum -0.9?
Marked response: satisfied

Exam item: Check if ncRNA array expression, patient 7 >= -0.9 (inclusive). Item: SEQ ID NO 56 (AAAAAATGAGGCAATCTCATCCCGAAACTATTTAAAACTACTCTCCTCTCTCTTGATAAA; listed as DNA, chemistry not given here; listed as Homo sapiens)
Marked response: not satisfied

Exam item: Say whether SEQ ID NO 44 (AGCCAACTCACGCTTAGGGAGAACTCATACCGCCTAAATATAAAGGCAATTATATATATA; listed as DNA, chemistry not given here; listed as Homo sapiens) shows ncRNA array expression, patient 7 of -0.9 or more.
Marked response: not satisfied

Exam item: # check: ncRNA array expression, patient 7 of SEQ ID NO 32 (ATTCAAATCTTCATGAATGGCATCACTTGCTTTAGACCCATTTTTTTTTTATTGGTCAGA; DNA, backbone and methylation of C not given here; listed as Homo sapiens) is greater than or equal to -0.9
Marked response: satisfied

Exam item: Confirm if ncRNA array expression, patient 7 reported for the substance SEQ ID NO 41 (CTCGTAACACTGGGAAAACTGCATACAATATTTAGAAGGAACACTAATACAGCAGAATCT; listed as DNA, chemistry not given here; listed as Homo sapiens) is -0.9 or above.
Marked response: not satisfied

Exam item: Determine whether this substance has ncRNA array expression, patient 7 no lower than -0.9: SEQ ID NO 62 (AATCGTTAATATCATTGATATTAAGTAATTTCCCCACTCTGAGTGAATACTTTGATGATG; listed as DNA, chemistry not given here; listed as Homo sapiens)
Marked response: satisfied

###

System: ncRNAs (SEQ ID NO 28-89)
test: ncRNA arrays of melanocytes, keratinocytes, normal skin, melanoma cell lines and patient samples
Design: species or system human
assay_setup: melanoma patient 24 sample compared to normal skin
endpoint: ncRNA array expression, patient 24
Answers are plain numbers.

{"columns": ["substance", "target_entity", "ncRNA array expression, patient 24"],
 "data": [
  ["SEQ ID NO 77 (AAGTTTCCACGGCAGGTTCTCGTAGCACCTTTGGTCAAGAACTGAAGGGGCCTTTAGATG; listed as DNA, chemistry not given here; listed as Homo sapiens)", "ncRNAs (SEQ ID NO 28-89)", "−1.578"]
]}

Below are 4 substances. Give each one its ncRNA array expression, patient 24.
1. SEQ ID NO 37 (ACGCACTGGGCGTTGAAGCAGTGCTTTCTGGATTAAATACGAAATACTGATGTCACAAGC; DNA, backbone and methylation of C not given here; listed as Homo sapiens)
2. SEQ ID NO 41 (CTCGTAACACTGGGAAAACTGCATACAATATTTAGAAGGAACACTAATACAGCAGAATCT; listed as DNA, chemistry not given here; listed as Homo sapiens)
3. SEQ ID NO 44 (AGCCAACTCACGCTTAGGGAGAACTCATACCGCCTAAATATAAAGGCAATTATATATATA; listed as DNA, chemistry not given here; listed as Homo sapiens)
4. SEQ ID NO 50 (GTTATTATAACCAATGCAGACTTTAAAATCCCACCTGGACATCGGGTGAGAGGAGGAGGG; listed as DNA, chemistry not given here; listed as Homo sapiens)

Marked response:
[4.312, "−2.6637", "−1.768", "−1.434"]

###

Tested on: ncRNAs (SEQ ID NO 28-89)
test: ncRNA arrays of melanocytes, keratinocytes, normal skin, melanoma cell lines and patient samples
Set-up: species or system human
assay_setup: melanoma patient 9 sample compared to normal skin
Would you kindly list ncRNA array expression, patient 9 for each of these substances?
One number for each entry.

{"columns": ["substance", "ncRNA array expression, patient 9"],
 "data": [
  ["SEQ ID NO 76 (TGTTTCTAATGCATACTGTGAAAGGAAAAAAAATCACAGTTATCCACCTTCTCAGGGCCT; listed as DNA, chemistry not given here; listed as Homo sapiens)", "−1.284"],
  ["SEQ ID NO 49 (CGATGGCTTGTCATTGTCCCCTGTCCTGGAACAATAAAGCAAGTGCCTTGTGGTCTCACT; listed as DNA, chemistry not given here; listed as Homo sapiens)", "−2.214"],
  ["SEQ ID NO 71 (AAAATTCCAAGAGGGCCTTTTCGAATAGACGCATGAACGGTGTTTGTGTCTGGATCGTCC; listed as DNA, chemistry not given here; listed as Homo sapiens)", 0.1592],
  ["SEQ ID NO 58 (ATTTATTTGACTCTAAAATGACAATATAACAACTATAAGGAATTGATATGATGTCCTTAC; listed as DNA, chemistry not given here; listed as Homo sapiens)", "−1.569"]
]}

# ---- query substance ----
ncRNA array expression, patient 9 in this record for SEQ ID NO 70 (AGTTATAGAGGAGGCTCAGGAGGATCTGGGGAAACGGGACCAGAGGGTAAGATGGGTTAT; listed as DNA, chemistry not given here; listed as Homo sapiens) : −1.366

###

Test system: ncRNAs (SEQ ID NO 28-89)
test: ncRNA arrays of melanocytes, keratinocytes, normal skin, melanoma cell lines and patient samples
Parameters: species or system human
assay_setup: melanoma patient 2 sample compared to normal skin
Answer each item with its documented ncRNA array expression, patient 2.
Answers are plain numbers.

Examples with their reported ncRNA array expression, patient 2 follow.
{"columns": ["substance", "ncRNA array expression, patient 2"],
 "data": [
  ["SEQ ID NO 42 (TAGACATAGGTTAGAGGGGGAACAGTGCTTAAAATTCCATGGAACTAAGATTTTTTTTAT; listed as DNA, chemistry not given here; listed as Homo sapiens)", "−1.5031"],
  ["SEQ ID NO 44 (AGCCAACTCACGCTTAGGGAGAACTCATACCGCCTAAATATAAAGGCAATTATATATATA; listed as DNA, chemistry not given here; listed as Homo sapiens)", "−1.843"],
  ["SEQ ID NO 53 (ATATATTTAGATAGTACTATGTTTCGTTTTCTTCCGATTTCAGGGATCCTTTTGTCTTAC; listed as DNA, chemistry not given here; listed as Homo sapiens)", "−2.867"],
  ["SEQ ID NO 80 (CACACAGCCCAGTCTGCCTGTGATGGTAATATAAATCAAACCAGGGACCCAAGAGCCCAG; listed as DNA, chemistry not given here; listed as Homo sapiens)", "−1.594"]
]}

Now, please, on to the next substance.
Reported ncRNA array expression, patient 2 for SEQ ID NO 59 (TGTGCAGCAGTATCAAAGGTCCTTAAATTCTCAACAATGAAGGAAAAACAAAAACCCATT; listed as DNA, chemistry not given here; listed as Homo sapiens) was −0.9339

###

System: ncRNAs (SEQ ID NO 28-89)
test: ncRNA arrays of melanocytes, keratinocytes, normal skin, melanoma cell lines and patient samples
Set-up: species or system human
assay_setup: melanoma patient 10 sample compared to normal skin
endpoint: ncRNA array expression, patient 10
One number for each entry.

{"columns": ["substance", "ncRNA array expression, patient 10"],
 "data": [
  ["SEQ ID NO 37 (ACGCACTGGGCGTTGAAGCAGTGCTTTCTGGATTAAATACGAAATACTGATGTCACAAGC; DNA, backbone and methylation of C not given here; listed as Homo sapiens)", 3.899],
  ["SEQ ID NO 39 (TGATCCTGTAAATCATGTTTTTGTTTATTCCCCAACACTAACCTCACTCCTTTACTATTC; listed as DNA, chemistry not given here; listed as Homo sapiens)", "−1.237"]
]}

Next substance, ncRNA array expression, patient 10 to be filled in.
// recorded ncRNA array expression, patient 10 for SEQ ID NO 48 (ACTTATATTCAGAGCATGTGGATTGGGACTCTGAAGAACAACTTTATGGTGGACACCTTC; listed as DNA, chemistry not given here; listed as Homo sapiens) : 2.286
